Test system: U251 CNS
Experiment: NCI-60 one-dose screen, 48 h (100 = growth as untreated, 0 = no growth, -100 = all killed)
Details: 10 µM unless noted
Compounds without any hit were thinned out: in the full panel of roughly 83,000, 20% have a hit. Calls of active or inactive are those of the source. Rule for the calls: active = growth percent below 10; inactive = the rest.
Can you tell me growth for the items I'm about to list?

Reference set (3 entries):
1. O=C1/C(=C\c2cn(Cc3ccccc3)c3ccc(Br)cc23)c2ccccc2N1c1c(Cl)cccc1Cl ... 96.4% (inactive)
2. Cc1ccc(C(c2c(O)c3cc(Br)ccc3[nH]c2=O)c2c(O)c3cc(Br)ccc3[nH]c2=O)cc1 ... 83.7% (inactive)
3. CO[C@@H]1[C@H](N(C)C(=O)c2ccccc2)C[C@@H]2O[C@]1(C)n1c3ccccc3c3c4c(c5c6ccccc6n2c5c31)C(=O)NC4=O ... 44.3% (inactive)

Batch of 3 molecules: report growth for each.
1. O=S(=O)(NCCNc1nccc(-c2c(-c3ccc(F)c(O)c3)nc3occn23)n1)c1ccccc1
2. O=C(CSc1nc2sc3c(c2c(=O)n1Cc1ccccc1)CCCC3)N1CCN(c2ccccc2)CC1
3. CCOC(=O)N1CCN(CCCCl)CC1

Marked response:
1. 60.4% (inactive)
2. 90.8% (inactive)
3. 95.6% (inactive)

Batch of 8 molecules: report growth for each.
1. C[C@]12C[C@H]1CC[C@]1(C)[C@@H]2CC[C@@]23C[C@H](CC[C@H]21)[C@@](O)(CO)C3
2. O=C(Nc1nc(-c2ccc(Br)cc2)cs1)c1cc(-c2ccc(Br)cc2)nc2ccc(Cl)cc12
3. COc1ccc(C(O)c2cc3c(N)c(C(=O)Nc4ccccc4)sc3nc2C)cc1 (stereo not given)
4. CN(C)C(=O)OCc1nc2c(N3CCOCC3)nc(-c3ccccc3)nc2n1C
5. CCN1C(=O)N(CC)C2C1NN=c1s/c(=C3\C(=O)Nc4ccccc43)c(=O)n12 (stereo not given)
6. Cc1nn(-c2ccccc2)c(N2CCOCC2)c1/C=N/N=c1\sc2ccccc2n1C
7. CC(=O)OC1CCC2(C)C(CCC3C4CC=C(C(C)=O)C4(C)OC(=O)CC32)C1 (stereo not given)
8. O=c1[nH]c2c(s1)CCCC2CN1CCCCC1 (stereo not given)

Marked response:
103% (inactive)
76.8% (inactive)
5.4% (active)
-57.2% (active)
31.4% (inactive)
55.2% (inactive)
54.8% (inactive)
102% (inactive)

###

Tested on: NCI-H522 lung
Assay: NCI-60 one-dose screen, 48 h (100 = growth as untreated, 0 = no growth, -100 = all killed)
Settings: 10 µM unless noted
This is part of a sample that, as a whole, favours compounds with a hit. Of some 83,000 tested, about 20% had one in any assay.
Please mark Satisfied if the recorded growth is equal to or greater than 80%, and Not satisfied if it falls below.

Solved entries:
1. CCN1C(=O)/C(=c2\sc3n(c2=O)NC2C(N=3)N(CC)C(=O)N2CC)c2ccccc21 (centres undefined) ... Not satisfied
2. O=C(Nc1nc2ccc(C(=O)N3CCN(c4ccc(Cl)c(Cl)c4)CC3)cc2s1)c1ccc(NCCc2ccccc2)c([N+](=O)[O-])c1 ... Not satisfied

Exam item: Could you tell me if the measured growth of `COc1ccc(OC)c(/C=C/[C@H]2O[C@@H](C)[C@H](O)[C@@H]2O)c1` reaches 80% or more?
Marked response: Satisfied

Exam item: Could you tell me if the measured growth of CC(Oc1ccc(C(=O)NS(=O)(=O)C(C)(C)C)cc1C(F)(F)F)c1ccc(Oc2ccccc2)cn1 (centres undefined) reaches 80% or more?
Marked response: Not satisfied

Exam item: Could you tell me if the measured growth of `COc1ccc(-c2nc(N/N=C/c3ccco3)nc(N3CCOCC3)c2C#N)cc1` reaches 80% or more?
Marked response: Not satisfied

Exam item: Could you tell me if the measured growth of `CC(=O)c1c[nH]c2ccc(-c3ccnc(Nc4ccc(NC(=O)c5cccc(F)c5)c(CN5CCOCC5)c4)n3)cc12` reaches 80% or more?
Marked response: Not satisfied

Exam item: Could you tell me if the measured growth of COC(=O)C1NC(=S)N(c2ccc(Cl)cc2)C1/C=C/c1ccccc1 (centres undefined) reaches 80% or more?
Marked response: Satisfied

Exam item: Could you tell me if the measured growth of `CCCN=C(N)c1ccc(NC(=O)c2ccc(C(=O)Nc3ccc(C(N)=NCCC)cc3)cc2)cc1` reaches 80% or more?
Marked response: Satisfied
